System: Rattus norvegicus
Test: Inhibition of carrageenan hind paw edema in rats after oral administration of a dose of 5 mg/kg
Type: functional
assay-endpoint: inhibition in vivo at 5 mg/kg

                                    molecule  endpoint_result
 0  CCOC(=O)COC(=O)C(C)c1ccc2c(c1)SCC1CCCCC1C2=O (stereo unspecified)            20.2%
 1  CC(C(=O)OCCc1ccccn1)c1ccc2c(c1)SCC1CCCCC1C2=O (stereo unspecified)            25.5%
 2  CC(C(=O)NCC(=O)O)c1ccc2c(c1)SCC1CCCCC1C2=O (stereo unspecified)            29.7%
 3  CC(C(=O)NCc1ccccc1)c1ccc2c(c1)SCC1CCCCC1C2=O (stereo unspecified)            -5.5%
 4  CC(C(=O)OCC(=O)c1ccccc1)c1ccc2c(c1)SCC1CCCCC1C2=O (stereo unspecified)            26.6%
 5  CC(C(=O)OCc1ccccn1)c1ccc2c(c1)SCC1CCCCC1C2=O (stereo unspecified)            30.6%
 6  CC(C(=O)OCc1cccnc1)c1ccc2c(c1)SCC1CCCCC1C2=O (stereo unspecified)            29.9%
 7  CC(C)COC(=O)C(C)c1ccc2c(c1)SCC1CCCCC1C2=O (stereo unspecified)            29.3%
 8  CC(C(=O)Oc1ccccc1)c1ccc2c(c1)SCC1CCCCC1C2=O (stereo unspecified)              22%
 9  CNC(=O)C(C)c1ccc2c(c1)SCC1CCCCC1C2=O (stereo unspecified)            14.6%
10  CCOCCOC(=O)C(C)c1ccc2c(c1)SCC1CCCCC1C2=O (stereo unspecified)            34.6%

----------
Assay: Safety index is the ratio of UD50 to ED50 in carrageenan hind paw edema; ca. 20
Assay type: toxicity
Settings: read-out: Safety index
assay-endpoint: selectivity ratio

>>> df
                                   molecule  endpoint_result
0  CC(C(=O)O)c1ccc2c(c1)SC[C@H]1CCCC[C@@H]1C2=O (relative stereo)               20

----------
System: Rattus norvegicus
Assay: Inhibition of carrageenan hind paw edema in rats after oral administration of a dose of 5 mg/kg
Assay type: functional
Property: inhibition in vivo at 5 mg/kg; scope: individual compounds
assay-endpoint: inhibition in vivo at 5 mg/kg (%)

>>> print(df.to_string())
                                   compound  endpoint_result
0  C=CCOC(=O)C(C)c1ccc2c(c1)SCC1CCCCC1C2=O (configuration not stated)             33.5
1  CCCCOC(=O)C(C)c1ccc2c(c1)SCC1CCCCC1C2=O (configuration not stated)               26
2  CC(C(=O)NO)c1ccc2c(c1)SCC1CCCCC1C2=O (configuration not stated)             29.9
3  CC(C)OC(=O)C(C)c1ccc2c(c1)SCC1CCCCC1C2=O (configuration not stated)             25.6
4  CC(C(=O)OCCOCCO)c1ccc2c(c1)SCC1CCCCC1C2=O (configuration not stated)             28.1
5  CC(C(=O)OCCc1ccccc1)c1ccc2c(c1)SCC1CCCCC1C2=O (configuration not stated)             39.1
6  CCOC(=O)C(C)c1ccc2c(c1)SCC1CCCCC1C2=O (configuration not stated)             38.3

Reference source for all entries: ChEMBL document CHEMBL1125038
